target: HLA-A2 (Homo sapiens, UniProt P04439, D140Y/D185E/D98H/E176V/E277Q/G131W/G231S/I119V/I121R/I166T/I218V/L300P/L318F/N151K/N90K/P208A/P217A/Q86G/Q94H/R138H/R169H/T345S); construct: stabilization of the class 1 molecule after loading of peptide to the peptide transporter deficient cell line T2; endogenous in cells; test: Assembly assay for peptide binding to class I MHC molecules; conditions: concentration of the peptide required for half maximal binding to HLA-A2; read-out: C50
pEC50: −log10 of the molar value.
measuredParameter: pEC50

{"columns": ["compound", "recordedNumber"],
 "data": [
  ["CC(C)C[C@H](NC(=O)[C@@H]1CCCN1C(=O)[C@H](Cc1c[nH]c2ccccc12)NC(=O)[C@H](CC(=O)O)NC(=O)[C@H](Cc1ccc(O)cc1)NC(=O)[C@H](Cc1ccccc1)NC(=O)[C@H](CO)NC(=O)[C@H](C)NC(=O)[C@H](CC(C)C)NC(=O)[C@@H](N)CCCNC(=N)N)C(=O)O [ML-IAP90]", 6.70],
  ["CC[C@H](C)[C@H](NC(=O)[C@@H]1CCCN1C(=O)[C@H](CS)NC(=O)[C@H](CC(C)C)NC(=O)[C@@H](N)CCC(N)=O)C(=O)N[C@@H](CS)C(=O)N[C@@H](CCCNC(=N)N)C(=O)N[C@@H](C)C(=O)N1CCC[C@H]1C(=O)N[C@H](C(=O)O)C(C)C [ML-IAP280]", 4.70],
  ["CC[C@H](C)[C@H](NC(=O)[C@@H](N)CCC(N)=O)C(=O)N[C@@H](CC(C)C)C(=O)NCC(=O)N[C@@H](CCC(N)=O)C(=O)N[C@@H](CC(C)C)C(=O)N[C@@H](CCCNC(=N)N)C(=O)N1CCC[C@H]1C(=O)N[C@@H](CC(C)C)C(=O)O [ML-IAP54]", 6.00],
  ["CC(C)C[C@H](NC(=O)[C@H](CCC(=O)O)NC(=O)[C@@H]1CCCN1C(=O)[C@@H]1CCCN1C(=O)[C@@H](NC(=O)[C@H](CCC(=O)O)NC(=O)[C@H](C)NC(=O)[C@@H](NC(=O)[C@@H](N)CC(C)C)[C@@H](C)O)C(C)C)C(=O)O [ML-IAP99]", 6.05]
]}

* * *

target: HLA-A2 (Homo sapiens, UniProt P04439, D140Y/D185E/D98H/E176V/E277Q/G131W/G231S/I119V/I121R/I166T/I218V/L300P/L318F/N151K/N90K/P208A/P217A/Q86G/Q94H/R138H/R169H/T345S); construct: stabilization of the class 1 molecule after loading of peptide to the peptide transporter deficient cell line T2; endogenous in cells; assay: Assembly assay for peptide binding to class I MHC molecules; settings: concentration of the peptide required for half maximal binding to HLA-A2; read-out: C50

{"columns": ["smi", "unitsOfMeasure", "resultQualifier", "EC50"],
 "data": [
  ["CC(C)C[C@H](NC(=O)CNC(=O)[C@H](CC(C)C)NC(=O)[C@@H](NC(=O)[C@@H]1CCCN1C(=O)[C@H](CO)NC(=O)CNC(=O)[C@H](CC(C)C)NC(=O)[C@@H](N)CO)C(C)C)C(=O)O", "µM", "=", 1],
  ["CC(C)C[C@H](NC(=O)[C@@H](N)CC(C)C)C(=O)N[C@@H](CCCNC(=N)N)C(=O)N[C@@H](CO)C(=O)N[C@@H](CCCCN)C(=O)NCC(=O)N[C@@H](CCCNC(=N)N)C(=O)N[C@@H](CC(=O)O)C(=O)N[C@@H](Cc1ccccc1)C(=O)N[C@H](C(=O)O)C(C)C", "µM", "=", 10],
  ["CSCC[C@H](NC(=O)CN)C(=O)NCC(=O)N[C@@H](CO)C(=O)N[C@@H](CCC(=O)O)C(=O)N[C@@H](CCC(=O)O)C(=O)N[C@@H](CC(C)C)C(=O)N[C@@H](CCCNC(=N)N)C(=O)N[C@@H](CC(C)C)C(=O)O", "µM", "=", 30],
  ["CC(C)C[C@H](NC(=O)[C@@H](N)CCCNC(=N)N)C(=O)N[C@@H](CCC(N)=O)C(=O)N[C@@H](CCC(=O)O)C(=O)N[C@@H](CCC(=O)O)C(=O)N[C@@H](CCCNC(=N)N)C(=O)N[C@H](C(=O)N[C@@H](CS)C(=O)N[C@@H](CCCCN)C(=O)N[C@H](C(=O)O)C(C)C)[C@@H](C)O", "µM", "=", 1],
  ["CC(C)C[C@H](NC(=O)[C@H](CCC(=O)O)NC(=O)[C@@H]1CCCN1C(=O)[C@@H]1CCCN1C(=O)[C@@H](NC(=O)[C@H](CCC(=O)O)NC(=O)[C@H](C)NC(=O)[C@@H](NC(=O)[C@H](CC(C)C)NC(=O)[C@@H]1CCCN1)[C@@H](C)O)C(C)C)C(=O)O", "µM", ">", 100],
  ["CC(C)C[C@H](NC(=O)[C@@H](N)C(C)C)C(=O)N[C@@H](CCC(=O)O)C(=O)N1CCC[C@H]1C(=O)N1CCC[C@H]1C(=O)NCC(=O)N[C@@H](C)C(=O)N[C@@H](CCCNC(=N)N)C(=O)N[C@@H](CC(=O)O)C(=O)N[C@H](C(=O)O)C(C)C", "µM", ">", 100]
]}

Measured values drawn from patent US7687465B2 for this set.
